Target chain: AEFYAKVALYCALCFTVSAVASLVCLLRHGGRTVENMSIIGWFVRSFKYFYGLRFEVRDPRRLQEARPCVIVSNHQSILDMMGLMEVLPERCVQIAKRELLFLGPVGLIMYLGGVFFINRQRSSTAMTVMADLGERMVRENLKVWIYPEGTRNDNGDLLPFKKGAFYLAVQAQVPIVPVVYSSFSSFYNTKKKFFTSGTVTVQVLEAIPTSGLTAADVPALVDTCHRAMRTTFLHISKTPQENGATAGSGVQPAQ
readout.kind: pIC50
In plain terms, pIC50 is the concentration in mol/L turned into minus its base-10 logarithm.

>>> print(df.to_string())
             smiles_representation  readout_kind  observed_value
0  CCCNc1nc(Nc2ccc(Cl)cc2)nc(OC)n1         pIC50            5.42

Exercise: Data request, read-out pIC50, for `COc1ccc(Nc2nc(Cl)nc(Nc3ccccc3)n2)cc1`
Key: 6.40
